Biological target: Carbonic anhydrase 2 (Homo sapiens, UniProt P00918)
ASSAY_ENDPOINT: Ki

# input compound: `NS(=O)(=O)c1ccc(N2C(=O)CS/C2=N\C(=O)c2ccccc2)cc1` ; wanted: its Ki
0.41 nM

====

Test system: MCF7
Assay: Antiproliferative activity against human MCF7 cells assessed as inhibition of cell growth under hypoxia condition by MTT colorimetric assay
ASSAY_ENDPOINT: IC50 (µM)
Field format: number, assumed µM, no unit text.

Look up IC50 for this compound: `CCN1C(=O)/C(=C\c2ccc(F)cc2)S/C1=N/c1ccc(S(N)(=O)=O)cc1`
34

====

Biological target: UniProtKB P00915
Sequence (P00915 whole entry): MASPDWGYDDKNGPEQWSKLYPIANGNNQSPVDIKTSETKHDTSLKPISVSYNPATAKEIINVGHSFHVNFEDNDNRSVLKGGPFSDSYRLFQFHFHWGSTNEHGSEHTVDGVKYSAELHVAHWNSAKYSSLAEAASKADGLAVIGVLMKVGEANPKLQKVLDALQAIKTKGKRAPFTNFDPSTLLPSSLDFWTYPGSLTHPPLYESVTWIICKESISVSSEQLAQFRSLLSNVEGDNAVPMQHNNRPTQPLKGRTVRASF
ASSAY_ENDPOINT: pKi
Remember the convention: pKi equals -log10 of concentration in molar.

Need pKi, item `CCN1C(=O)/C(=C\c2ccc(F)cc2)S/C1=N/c1ccc(S(N)(=O)=O)cc1`
5.35

This collection of values is drawn from ChEMBL document CHEMBL5500361.
